These measurements were taken from patent US11760773B2.

What half-life was measured for each of the following?
- methodNotes: Comparative plasma PK of Int 1-4 versus gemcitabine in mouse (study a)
- Format: in vivo
- experimentalSetup: mouse; plasma, CD-1 mice, after iv Int 1-4 9.4 mg/kg
Quick reminder: number only, in h, skip the unit.

Query: Any idea what its half-life is? The compound is Nc1ccn([C@@H]2O[C@H](CO)[C@@H](O)C2(F)F)c(=O)n1
Reply: 0.968

Query: What value of half-life has been recorded for this entry: COc1cc(OC)c2oc(COC(=O)Nc3ccn([C@@H]4O[C@H](CO)[C@@H](O)C4(F)F)c(=O)n3)cc2c1
Reply: 1.06

###

- methodNotes: Comparative plasma PK of Compound 1 versus Int 1-4 in male CD-1 mice (study b)
- Format: in vivo
- experimentalSetup: male, CD-1, mouse, iv, 10 mg/kg, after iv Int 1-4 10.0 mg/kg, Formulation 1
reportedProperty: C0 (ng/mL)
// return numeric value only (unit: ng/mL, not printed)

Query: Record request: C0 value, item COc1cc(OC)c2oc(COC(=O)Nc3ccn([C@@H]4O[C@H](CO)[C@@H](O)C4(F)F)c(=O)n3)cc2c1
Reply: 33800

###

- methodNotes: Metabolic stability in liver hepatocytes, rat
- Assay type: in vitro ADME
- experimentalSetup: negative value indicates compound is stable, read-out: t1/2 mean ± SE
reportedProperty: half-life
State the value, then name its unit.

Query: Which value of half-life has been reported for COc1cc(OC)c2oc(COC(=O)Nc3ccn([C@@H]4O[C@H](CO)[C@@H](O)C4(F)F)c(=O)n3)cc2c1 in the records?
Reply: 1.5 h

###

- methodNotes: Comparative dog plasma PK of Int 1-4 versus gemcitabine (study k)
- Type: in vivo
- experimentalSetup: male beagle dog, after iv gemcitabine 5.29 mg/kg, read-out: AUC0-inf
reportedProperty: AUC(0-inf) (ng·h/mL)
Return type: number; implicit unit ng·h/mL.

Query: Field request: AUC(0-inf) | item: Nc1ccn([C@@H]2O[C@H](CO)[C@@H](O)C2(F)F)c(=O)n1
Reply: 8600

###

- methodNotes: Int 1-4 and gemcitabine comparative PK in male cynomolgus monkey (study g)
- Type: in vivo
- experimentalSetup: plasma, male cynomolgus monkey, after iv Int 1-4 10 mg/kg (study g); read-out: Vdss
reportedProperty: Vd (L/kg)
State just the number; it will be interpreted in L/kg.

Query: Query (molecule): COc1cc(OC)c2oc(COC(=O)Nc3ccn([C@@H]4O[C@H](CO)[C@@H](O)C4(F)F)c(=O)n3)cc2c1 ; field requested: Vd
Reply: 0.349

###

- methodNotes: Liver microsomal stability, human
- Format: in vitro ADME
- experimentalSetup: human liver microsomes
Could you please report measured half-life for the items listed next?
Numbers only; they are read as h.

Query: Entry Nc1ccn([C@@H]2O[C@H](CO)[C@@H](O)C2(F)F)c(=O)n1 [Gemcitabine, gemcitabine] has what half-life?
Reply: 0.335

Query: Bench note: what half-life did COc1cc(OC)c2oc(COC(=O)Nc3ccn([C@@H]4O[C@H](CO)[C@@H](O)C4(F)F)c(=O)n3)cc2c1 [Int 1-4] show?
Reply: 30.8

###

- methodNotes: Dog liver S9 stability
- Format: in vitro ADME
- experimentalSetup: dog, liver S9, dog liver S9 experiment; read-out: intrinsic clearance value
reportedProperty: microsomal CLint (µL/min/mg)
Note: unit µL/min/mg is implicit; provide only the numeric part.

Query: Can you look up the measured microsomal CLint of COc1cc(OC)c2oc(COC(=O)Nc3ccn([C@@H]4O[C@H](CO)[C@@H](O)C4(F)F)c(=O)n3)cc2c1 [Int 1-4] for me?
Reply: 2.2
